# Test system: BxPC3 pancreatic cancer cell
# test protocol: cells
# Type: cell-based
# condition: Homo sapiens, BXPC-3; BxPC3, 120 h exposure; read-out: IC50, cell viability
pIC50: −log10 of the molar value.
quantity kind: pIC50

Exercise: Name the recorded pIC50 of the compound listed here: Nc1ccn([C@@H]2O[C@H](CO)[C@@H](O)C2(F)F)c(=O)n1 [gemcitabine, 2′,2′-difluoro 2′-deoxycytidine, reference compound]
Solution: ~8.30

---

Catalogue of IC50 readings, one per entry.
# Tested on: BxPC3 pancreatic cancer cell
# test protocol: cells
# Type: cell-based
# condition: BxPC3, 120 h exposure; read-out: IC50, cell viability

[
  {
    "substance": "SLP49-3: Unlabeled 25mer blunt ended siRNA against RAD17, sense CCAACAAUUAUGAUGAAAUUUCUUA (SEQ ID NO: 23) (antisense UAAGAAAUUUCAUCAUAAUUGUUGG; further chemistry not given here)",
    "IC50": "~4 nM"
  },
  {
    "substance": "SLP49-6: CHK1 siRNA, SS shortened by first 2 bases, containing 2 Gems (SEQ ID NO: 21) (sense UGUGGAAUAGUACUUACUGCAAUCC; antisense AUUGCAGUAAGUACUAUUCCACAGG; sense strand contains two gemcitabines, positions not given here, further chemistry not given here)",
    "IC50": "~3 nM"
  },
  {
    "substance": "SLP49-4: RAD17 25mer siRNA with 2 additional GEMs attached at the 3′ end of the SS (SEQ ID NO: 24) (sense CCAACAAUUAUGAUGAAAUUUCUUACC; antisense UAAGAAAUUUCAUCAUAAUUGUUGG; 25mer siRNA, two gemcitabine nucleotides added at sense strand 3' end, further chemistry not given here)",
    "IC50": "~4 nM"
  },
  {
    "substance": "SLP49-1: Unmodified 25mer blunt ended CHK1 siRNA, sense CCUGUGGAAUAGUACUUACUGCAAU (SEQ ID NO: 18) (antisense AUUGCAGUAAGUACUAUUCCACAGG; unmodified RNA)",
    "IC50": "0.25 nM"
  }
]

Exercise: Name the recorded IC50 of the substance listed here: SLP49-5: CHK1 siRNA, SS shortened by first 2 bases, 3 GEMs in place of Cs (SEQ ID NO: 20) (sense UGUGGAAUAGUACUUACUGCAAU; antisense AUUGCAGUAAGUACUAUUCCACAGG; three gemcitabines replace cytidines in sense strand, positions not given here)
Solution: ~3 nM

---

Catalogue of efficacy (inhibition of cell viability / cell killing) at 30 nM readings, one per entry.
# Tested on: BxPC3 pancreatic cancer cell
# test protocol: cells
# Assay type: cell-based

[
  {
    "substance": "SLP49-4: RAD17 25mer siRNA with 2 additional GEMs attached at the 3′ end of the SS (SEQ ID NO: 24) (sense CCAACAAUUAUGAUGAAAUUUCUUACC; antisense UAAGAAAUUUCAUCAUAAUUGUUGG; 25mer siRNA, two gemcitabine nucleotides added at sense strand 3' end, further chemistry not given here)",
    "study system": "BxPC3 pancreatic cancer cell",
    "result": "100%"
  },
  {
    "substance": "SLP49-6: CHK1 siRNA, SS shortened by first 2 bases, containing 2 Gems (SEQ ID NO: 21) (sense UGUGGAAUAGUACUUACUGCAAUCC; antisense AUUGCAGUAAGUACUAUUCCACAGG; sense strand contains two gemcitabines, positions not given here, further chemistry not given here)",
    "study system": "BxPC3 pancreatic cancer cell",
    "result": "83-97%"
  },
  {
    "substance": "SLP49-2: 25mer CHK1 siRNA with 2 GEMs attached at the 3′ end of the Sense Strand (SEQ ID NO: 19) (sense CCUGUGGAAUAGUACUUACUGCAAUCC; antisense AUUGCAGUAAGUACUAUUCCACAGG; 25mer siRNA, two gemcitabine nucleotides added at sense strand 3' end, further chemistry not given here)",
    "study system": "BxPC3 pancreatic cancer cell",
    "result": "~ 100%"
  }
]

Now for the substance whose efficacy (inhibition of cell viability / cell killing) at 30 nM we want.
Exercise: Name the recorded efficacy (inhibition of cell viability / cell killing) at 30 nM of the substance listed here: SLP49-5: CHK1 siRNA, SS shortened by first 2 bases, 3 GEMs in place of Cs (SEQ ID NO: 20) (sense UGUGGAAUAGUACUUACUGCAAU; antisense AUUGCAGUAAGUACUAUUCCACAGG; three gemcitabines replace cytidines in sense strand, positions not given here)
Solution: 83-97%
